- Test system: biotinyl-Val-oxazolone
- Protocol notes: self-aminoacylation, catalytic enhancement (BVO) (fold over background); higher = more active; k-Seq, kA / k0A0; sequences stand for … in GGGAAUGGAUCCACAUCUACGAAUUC…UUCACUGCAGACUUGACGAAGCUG
This sample holds only a part of the variants without activity.
Please use the following self-aminoacylation ranges when assigning a class: L = under 0.9, M = from 0.9 up to 2, H = 2 and over

Check out these entries, answers already filled in.
Which self-aminoacylation category applies to CUCCUUCAAACAAUCGGCCUG [Fam1A.1 aminoacylation ribozyme variant] here?
H

Which self-aminoacylation category applies to CUACUGCAAACAAUCGGUCUU [Fam1A.1 aminoacylation ribozyme variant] here?
L

Which self-aminoacylation category applies to UCACACUUCAAGCAAUCAGUC [Fam1B.1 aminoacylation ribozyme variant] here?
M

Which self-aminoacylation category applies to CCACCCUUCAAGCACUCGGUC [Fam1B.1 aminoacylation ribozyme variant] here?
M

Next:
Which self-aminoacylation category applies to AUUACCCUGGUCAUCGAGUGA [Fam2.1 aminoacylation ribozyme variant] here?
H

Which self-aminoacylation category applies to AUUCACCUAGGUCAUCAGGUG [Fam2.2 aminoacylation ribozyme variant] here?
M

Which self-aminoacylation category applies to AUUCACGUAGGUAAUCGGGUG [Fam2.2 aminoacylation ribozyme variant] here?
H

----------
- System: biotinyl-Leu-oxazolone
- Protocol notes: self-aminoacylation, catalytic enhancement (BLO) (fold over background); higher = more active; k-Seq, kA / k0A0; sequences stand for … in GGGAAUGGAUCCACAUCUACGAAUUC…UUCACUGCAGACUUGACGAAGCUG
Fewer inactive variants are shown than the library holds.
Metric name: self-aminoacylation
// no unit string in output, number only

Worked examples follow.
Measured on biotinyl-Leu-oxazolone, AUUCACCUGGGUGAUCGGGUG [Fam2.2 aminoacylation ribozyme variant] has a documented self-aminoacylation of 4.89

Measured on biotinyl-Leu-oxazolone, AAUACCCUGGUCAUCCAGUGA [Fam2.1 aminoacylation ribozyme variant] has a documented self-aminoacylation of 4.96

Measured on biotinyl-Leu-oxazolone, AUUCGCCUAGGUCACCGGGUG [Fam2.2 aminoacylation ribozyme variant] has a documented self-aminoacylation of 8.04

Measured on biotinyl-Leu-oxazolone, AUUAAUCUGGUCAUCGAGUGA [Fam2.1 aminoacylation ribozyme variant] has a documented self-aminoacylation of 5.01

Measured on biotinyl-Leu-oxazolone, AUGACCCUGGUCAUCAAGUGA [Fam2.1 aminoacylation ribozyme variant] has a documented self-aminoacylation of 2.28

Measured on biotinyl-Leu-oxazolone, CCACACUGCAAGAAAUCGGUC [Fam1B.1 aminoacylation ribozyme variant] has a documented self-aminoacylation of 1.51

Measured on biotinyl-Leu-oxazolone, AUUCGCCUGGGUCAUCGGGUG [Fam2.2 aminoacylation ribozyme variant] has a documented self-aminoacylation of 15.8

Measured on biotinyl-Leu-oxazolone, CCACACUUCAAGCUUUCGGUC [Fam1B.1 aminoacylation ribozyme variant] has a documented self-aminoacylation of 1.3

Next:
Measured on biotinyl-Leu-oxazolone, GUAUUUCAAACAAUCGGUCUG [Fam1A.1 aminoacylation ribozyme variant] has a documented self-aminoacylation of 1.02

Measured on biotinyl-Leu-oxazolone, AUUACCAUGGUCAUAGAGUGA [Fam2.1 aminoacylation ribozyme variant] has a documented self-aminoacylation of 8.72

Measured on biotinyl-Leu-oxazolone, GUUACCCUGGUCAUCGAGCGA [Fam2.1 aminoacylation ribozyme variant] has a documented self-aminoacylation of 4.14
